- Test Method Notes: NCI Yeast Anticancer Drug Screen. Data for the bub3 strain (AID 167)
- Setup Conditions: S. cerevisiae bub3 mutant strain, at 50.0 µM (retest, dose inferred, filed as 5.0)
Compounds without any hit were thinned out: in the full panel of roughly 79,000, 15% have a hit. Activity calls are given as the source filed them. Cut-off read from the data, not from the text of the source: active = growth inhibition above about 70%; inactive = the rest.
# output must be one of true for active, false for inactive

# example entries with known answers
Nc1ccc2c(=S)c3ccccc3[nH]c2c1	true
O=C(Nc1cccc(C(F)(F)F)c1)Oc1ccc(Cl)cc1C(=O)c1ccccc1	true

Record request — test call for "CC[C@@]1(OC(=O)CN(C)C)C(=O)OCc2c1cc1n(c2=O)Cc2cc3c(N)cccc3nc2-1"
false

Record request — test call for "CN(N=O)c1ccc(/C=C/c2ccnc3ccccc23)cc1"
false

Record request — test call for "Cc1ccc(Nc2c3c(c(C#N)c4nc5ccccc5n24)CCCC3)cc1"
false

Record request — test call for "O=C1CSC(=S)N1Cc1ccc(Cl)cc1Cl"
true

====

- Test Method Notes: NCI Yeast Anticancer Drug Screen. Data for the rad50EPP+ strain (AID 151);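 note: 0% = growth of vehicle-treated control cultures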
- Setup Conditions: S. cerevisiae rad50 mutant strain, at 33.0 µM, stronger effect = higher value
- Experimental: Growth inhibition of yeast strains with defined genetic alterations is measured as a screen for potential anti-cancer activity. Selected strains with alterations in DNA damage repair or cell cycle control were exposed to compounds and growth inhibition was measured relative to vehicle treated controls. The strain used in this assay is rad50EPP+
About 79,000 compounds went through this panel and 15% of them were active in at least one assay; those are over-represented in the sample as a whole. Activity calls are given as the source filed them. Cut-off read from the data, not from the text of the source: active = growth inhibition above about 70%; inactive = the rest.
Property Name: growth inhibition

Solved cases (4 shown):
[Pt].c1ccc(P(CCP(c2ccccc2)c2ccccc2)CCP(c2ccccc2)c2ccccc2)cc1	61% (inactive)
NC(=O)N1c2ccccc2C=Cc2ccccc21	-91% (inactive)
O=C(/C=C/c1cccc2ccccc12)c1ccc(Cl)cc1	0% (inactive)
CCCCC(=O)c1c(O)nc2sccn2c1=O	94% (active)

Data point: CC1=CC2C(C(C)C)CC1C1C(=O)OC(=O)C21 (stereo unspecified) ; growth inhibition = 33% (inactive)

Data point: "COc1ccc(/C=C2\SC(=S)N(C=C3C(=O)NC(=S)NC3=O)C2=O)cc1OC" ; growth inhibition = 56% (inactive)

====

- Test Method Notes: NCI Yeast Anticancer Drug Screen. Data for the CLN2oe strain (AID 163);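 note: 0% = growth of vehicle-only control cultures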
- Setup Conditions: S. cerevisiae CLN2oe strain, at 3.7 µM, stronger effect = higher value
The panel holds about 79,000 compounds, 15% with a hit somewhere; the sample as a whole holds those more often.
Known growth inhibition of a selection of molecules
Reply numerically in %, unit not repeated.

Solved cases (3 shown):
CCC(c1ccc(O)cc1)C(CC)c1ccc(OCCN)cc1 (stereo not given)	-4
CC1=CCC(C(C)(C)c2ccc(O)cc2)CC1 (stereo not given)	19
O=c1[nH]cc(/C=N\Nc2ccccc2)c(=O)[nH]1	6

Data point: "CN(C)c1ccc(/C=C/c2ccnc3ccccc23)cc1N" ; growth inhibition = -5

====

- Test Method Notes: NCI Yeast Anticancer Drug Screen. Data for the rad18 strain (AID 177)
- Setup Conditions: S. cerevisiae rad18 mutant growth inhibition; at 100.0 µM; stronger effect = higher value
Compounds without any hit were thinned out: in the full panel of roughly 79,000, 15% have a hit.
Binary classification by growth inhibition, with 60% as an inclusive lower bound for met; all other cases are not met.

# example entries with known answers
CC1=CCCC2C1(C)CCC(C)C2(C)Cc1cc(O)ccc1O (stereo not drawn)	met
CCOP1(=O)C=C(Sc2ccc([N+](=O)[O-])cc2[N+](=O)[O-])C(C)(C)O1 (stereo not drawn)	met
O=C1OC2C(O)COC2(OCc2c[nH]c3ccccc23)C1O (stereo not drawn) (tested in a mixture with another compound)	met
Nc1ccc(S(=O)(=O)Nc2ccc(Nc3c4ccccc4nc4ccccc34)cc2)cc1	not met
c1ccc(N2N=C3N(c4ccccc4)C2N3c2ccccc2)cc1	met

Identify whether the reported growth inhibition of the following compound is 60% or greater: "COc1ccc(/C(C#N)=C/c2ccc(OC)c(OC)c2)cc1"
not met

Identify whether the reported growth inhibition of the following compound is 60% or greater: "NNC(=S)Nc1cccc2ccccc12"
not met

Identify whether the reported growth inhibition of the following compound is 60% or greater: "COc1ccc(/C=C2\SC(=S)N(C=C3C(=O)NC(=S)NC3=O)C2=O)cc1OC"
met

Identify whether the reported growth inhibition of the following compound is 60% or greater: "COc1cc(CNc2ccc(C(C)C)cc2)cc(OC)c1OC"
met

Identify whether the reported growth inhibition of the following compound is 60% or greater: OC(CN1CCCCC1)c1cc(Cl)c(Cl)c(Cl)c1 (stereo not drawn)
not met

Identify whether the reported growth inhibition of the following compound is 60% or greater: "COC(=O)/C=C1/OC(c2ccc(Br)cc2)=C(Br)C1=O"
met

Identify whether the reported growth inhibition of the following compound is 60% or greater: "O=C(/C=C/c1cccc2ccccc12)c1ccc(Cl)cc1"
not met

Identify whether the reported growth inhibition of the following compound is 60% or greater: "O=C1CC(=O)N(C2CCCCC2)C(=O)N1c1ccccc1S(=O)(=O)Oc1ccccc1"
not met

Identify whether the reported growth inhibition of the following compound is 60% or greater: "CC(=O)N1C(=O)/C(=C\C(=O)c2ccc(Cl)cc2)c2ccccc21"
met

Identify whether the reported growth inhibition of the following compound is 60% or greater: "O=C(CNS(=O)(=O)Cc1ccccc1)NNc1ccccc1"
met

Identify whether the reported growth inhibition of the following compound is 60% or greater: "CCOC(=O)C1=C(C)NC(C)=C(C(=O)OCC)C1c1ccc(C)cc1"
met

Identify whether the reported growth inhibition of the following compound is 60% or greater: Clc1c(Cl)c(Cl)c2c(nnn2C2CCCO2)c1Cl (stereo not drawn)
not met

Identify whether the reported growth inhibition of the following compound is 60% or greater: "CNc1nc(C)nc2c1cnn2-c1ccc([N+](=O)[O-])cc1"
met

Identify whether the reported growth inhibition of the following compound is 60% or greater: "S=c1[nH]nc(-c2ccc(Cl)cc2)s1"
met

Identify whether the reported growth inhibition of the following compound is 60% or greater: "Nc1ccc2c(c1)sc1ccccc12"
met

Identify whether the reported growth inhibition of the following compound is 60% or greater: "Cc1ccc(S(=O)(=O)N(C)c2ccc(Cl)cc2C2=NCCc3ccccc32)cc1"
met

Identify whether the reported growth inhibition of the following compound is 60% or greater: "O=C1CSC(=S)N1Cc1ccc(Cl)cc1Cl"
met

Identify whether the reported growth inhibition of the following compound is 60% or greater: "Clc1c(Cl)c(Cl)c2n[nH]nc2c1Cl"
not met

====

- Test Method Notes: NCI Yeast Anticancer Drug Screen. Data for the rad50 strain (AID 155);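 note: 0% = growth of vehicle-only cultures of the same strain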
- Setup Conditions: S. cerevisiae rad50 strain growth inhibition; at 33.0 µM; stronger effect = higher value
Compounds without any hit were thinned out: in the full panel of roughly 79,000, 15% have a hit.
Binary classification by growth inhibition, with 90% as an inclusive lower bound for condition met; all other cases are condition not met.

# example entries with known answers
CCCCC(=O)c1c(O)nc2sccn2c1=O	condition met
CN(CC(=O)O)c1ccc(/C=C/c2ccnc3ccccc23)cc1	condition not met
c1ccc2c(c1)ccc1c3ccncc3ccc21	condition met
O=C(/C=C\c1ccc([N+](=O)[O-])o1)Nc1ccc(Cl)cc1	condition met
OCCN(CCO)c1ccc2c(c1)Cc1ccccc1-2	condition not met

Below: the item to evaluate.
Identify whether the reported growth inhibition of the following compound is 90% or greater: Nc1nc2c(c(=O)[nH]1)NC(CCNc1ccc(C(=O)O)cc1)CN2 (stereo not drawn)
condition not met

====

- Test Method Notes: NCI Yeast Anticancer Drug Screen. Data for the rad14 strain (AID 159);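 note: 0% = growth of vehicle-treated control cultures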
- Setup Conditions: S. cerevisiae rad14 strain growth inhibition; at 3.7 µM; stronger effect = higher value
About 79,000 compounds went through this panel and 15% of them were active in at least one assay; those are over-represented in the sample as a whole.
Known growth inhibition of a selection of compounds
Reply numerically in %, unit not repeated.

Solved cases (5 shown):
O=C1C=CC(=O)N1c1ccc(N2C(=O)C=CC2=O)cc1	101
CC(C)(O)c1ccccc1C(c1ccccc1)c1ccccc1	0
OC(CN1CCCCC1)c1cc(Cl)c(Cl)c(Cl)c1 (stereo not drawn)	25
S=c1[nH]nc(-c2ccc(Cl)cc2)s1	-18
CN(NC(=O)/C(=C/c1ccc(O)cc1)NC(=O)c1ccccc1)c1ccnc2cc(Cl)ccc12	2

Now turn to the next compound.
Data point: "CC(=O)[O-].O=C([CH-]C(=O)c1ccccc1)c1ccccc1.O=C([CH-]C(=O)c1ccccc1)c1ccccc1.[Sm+3]" ; growth inhibition = 7

====

- Test Method Notes: NCI Yeast Anticancer Drug Screen. Data for the mlh1 strain (AID 171);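 note: 0% = growth of vehicle-treated control cultures of the same strain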
- Setup Conditions: S. cerevisiae mlh1 strain growth inhibition; at 33.0 µM
Compounds without any hit were thinned out: in the full panel of roughly 79,000, 15% have a hit. Activity calls are given as the source filed them. Cut-off read from the data, not from the text of the source: active = growth inhibition above about 70%; inactive = the rest.
# output must be one of active, inactive

# example entries with known answers
NC(N)=NCCCS(=O)(=O)Nc1ccc(Nc2c3ccccc3nc3cc([N+](=O)[O-])ccc23)cc1	inactive
S=c1[nH]nc(-c2ccc(Cl)cc2)s1	inactive
COc1ccc(N)c2c1C(=O)c1ccccc1C2=O	inactive
CC(=O)OCC1OC(O[C@H]2C=C[C@@H](C(=O)OCc3ccccc3)n3c(=O)n(-c4ccccc4)c(=O)n32)C(OC(C)=O)C(OC(C)=O)C1OC(C)=O (stereo not given in full)	inactive
COc1ccc(/C=C2\SC(=S)N(C=C3C(=O)NC(=S)NC3=O)C2=O)cc1OC	active

Record request — test call for CC1=CCCC2C1(C)CCC(C)C2(C)Cc1cc(O)ccc1O (stereo not given)
active
